test system: OVCAR-3 ovarian; test: NCI-60 one-dose screen, 48 h (100 = growth as untreated, 0 = no growth, -100 = all killed); conditions: 10 µM unless noted
The panel holds about 83,000 compounds, 20% with a hit somewhere; the sample as a whole holds those more often.
assay metric: growth (%)
Field: numeric (%). Do not append units.

// lookup growth for `Cn1c(-c2ccccc2)cc(=O)cc1-c1ccccc1`
122

// lookup growth for Clc1ccc2c(c1)N(C1CCCN(Cc3ccccc3)C1)c1ccccc1S2 (configuration not stated)
53.3

// lookup growth for `O=C(c1ccncc1)c1c(Cc2ccccc2)ccc2ccccc12`
98

// lookup growth for `C/C(CC(C)C)=N/NC(N)=S`
48.1

// lookup growth for Nc1ccccc1SC1CC(=O)N(c2ccc(I)cc2)C1=O (configuration not stated)
87.1

// lookup growth for `O=COCCCc1ccccc1`
109

// lookup growth for `CCOCCC(=O)O`
115

// lookup growth for `COC(=O)c1nc(=S)[nH]c(C(=O)OC)c1C(=O)c1ccc(OC)cc1`
119

// lookup growth for `O=C(OCc1ccccc1)c1ccccc1`
116

// lookup growth for O=C1C=CC(n2cc(F)c(=O)[nH]c2=O)O1 (configuration not stated)
57.5

// lookup growth for `COC(=O)c1nc(N)nc(C(=O)OC)c1C(=O)c1ccc(F)cc1`
116

// lookup growth for O=P(O)(O)OC1C(OP(=O)(O)O)C(OP(=O)(O)O)C(OP(=O)(O)O)C(OP(=O)(O)O)C1OP(=O)(O)O.[Cu+2] (configuration not stated)
123

// lookup growth for CCN(CC)CCO/N=C1\CC(c2ccc(OC)c(OC)c2)Oc2ccccc21 (configuration not stated)
111

// lookup growth for `CC(=O)Nc1ccc2oc(=O)ccc2c1`
110

// lookup growth for `OCCS`
105

// lookup growth for `O=[N+]([O-])c1cccc(N=Cc2ccccc2)c1`
122

// lookup growth for CC(C)(C)C1CCC(=NO)CC1 (configuration not stated)
104

// lookup growth for `CC1=CC(=O)c2cccc(NC3=NCCO3)c21`
106

// lookup growth for CCC(C)NC(=O)c1ccccc1C (configuration not stated)
110

// lookup growth for `CC(=O)c1cc2ccccc2o1`
114

// lookup growth for C/C(=C\c1ccccc1)C(O)C(=O)c1nc2ccc([N+](=O)[O-])cc2[nH]c1=O (configuration not stated)
113

// lookup growth for COC(=O)C(Cc1cn(C(C)=O)c2ccccc12)P(=O)(OC)OC (configuration not stated)
106

// lookup growth for `CN(C)C(=S)N(C)C`
107

// lookup growth for `CCNCc1ccccc1`
102

// lookup growth for `CCc1ccccc1-n1[nH]c(C)c(C=N)c1=O`
124

// lookup growth for `C=CCN1C(=O)c2ccccc2C1=O`
110

// lookup growth for `CC1(C)CC(=O)NC1=O`
103

###

Test system: SW-620 colon
Assay: NCI-60 one-dose screen, 48 h (100 = growth as untreated, 0 = no growth, -100 = all killed)
Conditions: 10 µM unless noted
Experimental: Growth inhibition of the SW-620 human tumor cell line is measured as a screen for anti-cancer activity. Cells are grown in 96 well plates and exposed to the test compound for 48 hours. Compounds are tested at a single concentration, which is 10^-5 M for most compounds. The reported endpoint is percent growth (GI% or GIPRCNT), where numbers from 0 - 100% represent growth inhibition, and numbers from -100% - 0 represent cell death. For example, a value of 40 represents 60% growth inhibition. […]
This is part of a sample that, as a whole, favours compounds with a hit. Of some 83,000 tested, about 20% had one in any assay.
assay metric: growth (%)
Field: numeric (%). Do not append units.

I'm curious: which growth was measured for `c1ccc2c[n+](Cc3ccc4ccccc4n3)ccc2c1` tested on SW-620 colon?
87.5

I'm curious: which growth was measured for `CCC/C(=N/NC(N)=O)c1ccco1` tested on SW-620 colon?
102

I'm curious: which growth was measured for `NCCSSC/C=C\CSSCCN` tested on SW-620 colon?
102

I'm curious: which growth was measured for C#CCOC(=O)C(N)CS (configuration not stated) tested on SW-620 colon?
97.1

I'm curious: which growth was measured for `CCn1c2ccc(N(C)C)cc2c2cc(N(C)C)ccc21` tested on SW-620 colon?
96.2

I'm curious: which growth was measured for `CCOC(=N)c1ccc(C(=N)OCC)cc1` tested on SW-620 colon?
119

I'm curious: which growth was measured for `CC(=O)/C(N=Nc1ccc(S(=O)(=O)c2ccc(N=N/C(C(C)=O)=C(/C)O)cc2)cc1)=C(\C)O` tested on SW-620 colon?
99.4
